# Tested on: syndecan-1, syndecan-2, syndecan-3, syndecan-4
# procedure.details: Recombinant syndecan binding to synthesized laminin HBD peptides (ELISA)
# Design: species or system human; key: ++ indicates high affinities; + indicates medium/low affinities
# condition: summary Table 2
readout.kind: Interaction with Syndecans

>>> print(df.to_string())
                                   sequence                           target_of_assay                readout_kind  result
0  KNSFMALYLSKGR [α33031-3043, laminin α3 chain LG4-derived peptide, 13 aa]  syndecan-1, syndecan-2, syndecan-3, syndecan-4  Interaction with Syndecans       +
1  PLFLLHKKGKNLSKPKASQNKKGGKSK [α41408-1434, laminin α4 chain linker peptide, 27 aa]  syndecan-1, syndecan-2, syndecan-3, syndecan-4  Interaction with Syndecans      ++
2  RQRSRPGRWHKVSVRWEKNR [α53417-3436, laminin α5 chain LG4-derived peptide, 20 aa]  syndecan-1, syndecan-2, syndecan-3, syndecan-4  Interaction with Syndecans      ++
3  RLVFALGTDGKKLRIKSKEKCNDGK [α33043-3067, laminin α3 chain LG4-derived peptide, 25 aa]  syndecan-1, syndecan-2, syndecan-3, syndecan-4  Interaction with Syndecans      ++
